target_of_assay: IGF-1R (Homo sapiens (Human), UniProt P08069)
assay_comment: Example B-1: IGF-1R Assay (PC3 cells, IGF1 stimulation, AlphaLISA)
Format: cell-based
run_parameters: 200 ng/mL IGF1 stimulation, read-out: Biological Activity against IGF-1R IC50
Sequence (P08069 31-1367): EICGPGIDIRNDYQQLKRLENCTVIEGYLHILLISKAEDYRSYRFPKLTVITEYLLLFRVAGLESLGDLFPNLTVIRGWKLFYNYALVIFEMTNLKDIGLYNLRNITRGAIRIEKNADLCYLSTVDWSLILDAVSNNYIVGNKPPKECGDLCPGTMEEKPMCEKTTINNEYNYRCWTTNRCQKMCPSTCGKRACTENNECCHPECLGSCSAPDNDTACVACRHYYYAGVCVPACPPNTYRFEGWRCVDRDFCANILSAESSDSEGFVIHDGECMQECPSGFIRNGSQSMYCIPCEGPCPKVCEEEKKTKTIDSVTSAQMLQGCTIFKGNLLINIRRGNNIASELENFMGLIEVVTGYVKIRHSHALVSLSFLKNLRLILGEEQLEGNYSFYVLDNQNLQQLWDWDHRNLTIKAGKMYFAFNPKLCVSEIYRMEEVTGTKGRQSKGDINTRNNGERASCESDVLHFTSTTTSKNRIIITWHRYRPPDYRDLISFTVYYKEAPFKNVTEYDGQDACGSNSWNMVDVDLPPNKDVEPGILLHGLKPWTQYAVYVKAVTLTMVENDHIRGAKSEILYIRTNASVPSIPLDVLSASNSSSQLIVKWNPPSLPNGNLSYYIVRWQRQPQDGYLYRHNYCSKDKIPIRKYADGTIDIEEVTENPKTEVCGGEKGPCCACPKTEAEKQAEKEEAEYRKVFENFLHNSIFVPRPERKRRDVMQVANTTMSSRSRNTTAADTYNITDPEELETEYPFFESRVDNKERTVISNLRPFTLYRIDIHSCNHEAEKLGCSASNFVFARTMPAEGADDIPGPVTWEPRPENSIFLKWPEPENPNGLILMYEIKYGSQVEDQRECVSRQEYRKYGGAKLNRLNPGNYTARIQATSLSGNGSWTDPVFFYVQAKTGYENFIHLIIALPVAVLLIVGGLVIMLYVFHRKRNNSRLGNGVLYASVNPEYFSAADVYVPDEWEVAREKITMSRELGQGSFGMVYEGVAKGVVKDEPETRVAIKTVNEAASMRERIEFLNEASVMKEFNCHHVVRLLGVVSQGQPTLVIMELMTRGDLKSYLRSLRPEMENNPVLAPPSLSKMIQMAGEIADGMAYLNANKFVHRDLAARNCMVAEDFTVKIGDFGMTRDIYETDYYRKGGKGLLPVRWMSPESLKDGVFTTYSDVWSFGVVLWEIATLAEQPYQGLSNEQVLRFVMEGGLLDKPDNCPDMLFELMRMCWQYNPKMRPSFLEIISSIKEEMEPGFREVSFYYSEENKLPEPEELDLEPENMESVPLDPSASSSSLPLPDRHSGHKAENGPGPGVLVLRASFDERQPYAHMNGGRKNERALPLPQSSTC
pIC50: −log10 of the molar value.
Reported pIC50 values for a set of compounds

compound	target_of_assay	pIC50
CN(C)CC1COc2cc(Nc3nccc(Nc4cnc5cc(F)c(F)cc5c4)n3)ccc2O1 (stereo not drawn)	IGF-1R (Homo sapiens (Human), UniProt P08069)	≥ 6.30
COc1cc(Nc2nccc(Nc3cnc4c(c3)CCC3(CCCC3)C4)n2)ccc1O[C@H]1C[C@H](N(C)C)C1	IGF-1R (Homo sapiens (Human), UniProt P08069)	≥ 6.30
COc1cc(Nc2nccc(Nc3cnc4c(Cl)cccc4c3)n2)ccc1OCCCN1CCCCC1	IGF-1R (Homo sapiens (Human), UniProt P08069)	≥ 6.30
COc1cc(Nc2nccc(Nc3cnc4c(c3)CS(=O)(=O)CC4)n2)ccc1OCCCN1CCCCC1	IGF-1R (Homo sapiens (Human), UniProt P08069)	5.00 to 5.70
COc1cc(Nc2nccc(Nc3cnc4ccccc4c3)n2)ccc1OC1CN(C)C1	IGF-1R (Homo sapiens (Human), UniProt P08069)	≥ 6.30
O=S1(=O)CCN([C@H]2C[C@H](Oc3ccc(Nc4nccc(Nc5cnc6c(c5)OCCO6)n4)cc3)C2)CC1	IGF-1R (Homo sapiens (Human), UniProt P08069)	≥ 6.30

Value of measured pIC50 for the entry COc1cc(Nc2nccc(Nc3cnc4cc(Cl)ccc4c3)n2)ccc1O[C@H]1C[C@@H](N(C)C)C1 : ≥ 6.30

Value of measured pIC50 for the entry COc1cc(Nc2nccc(Nc3cnc4c(c3)CCCCC4)n2)ccc1OCCCN1CCCCC1 : ≥ 6.30

Value of measured pIC50 for the entry COc1ccc2ccc(Nc3ccnc(Nc4ccc(OCCCN5CCCCC5)c(OC)c4)n3)cc2c1 : ≥ 6.30

Value of measured pIC50 for the entry CN(C)[C@H]1C[C@@H](Oc2ccc(Nc3nccc(Nc4cnc5ccccc5c4)n3)cc2)C1 : ≥ 6.30

Value of measured pIC50 for the entry COc1ccc2cc(Nc3ccnc(Nc4ccc(O[C@H]5C[C@H](N6CCS(=O)(=O)CC6)C5)cc4)n3)cnc2c1 : 5.00 to 5.70

Value of measured pIC50 for the entry COc1cc(Nc2nccc(Nc3cnc4c(c3)SC(C)CC4)n2)ccc1OCCCN1CCCCC1 (stereo not drawn) : ≥ 6.30

----------
Reported IC50 values for a set of compounds
target_of_assay: IGF-1R (Homo sapiens (Human), UniProt P08069)
assay_comment: Example B-1: IGF-1R Assay (PC3 cells, IGF1 stimulation, AlphaLISA)
Format: cell-based
run_parameters: 200 ng/mL IGF1 stimulation, read-out: Biological Activity against IGF-1R IC50

Answered examples (5):
compound	IC50
COc1cc(Nc2nccc(Nc3cnc4c(c3)CC(F)(F)CC4)n2)ccc1O[C@H]1C[C@H](N(C)C)C1	≤ 500 nM
COc1cc(Nc2nccc(Nc3cnc4c(c3)OC(CN(C)C)CO4)n2)ccc1O[C@H]1C[C@@H](N(C)C)C1 (stereo partly shown)	≤ 500 nM
COc1nc(N2CCC(O)(C(F)(F)F)CC2)ccc1Nc1nccc(Nc2cc3cccc(F)c3[nH]c2=O)n1	≤ 500 nM
COc1cc(Nc2nccc(Nc3cnc4ccc(Cl)cc4c3)n2)ccc1OC1CN(C)C1	> 10000 nM
COc1cc(Nc2nccc(Nc3cnc4c(c3)CC3(CCC3)CC4)n2)ccc1O[C@H]1C[C@H](N(C)C)C1	≤ 500 nM

Value of measured IC50 for the entry COc1cc(Nc2nccc(Nc3cnc4cc(F)c(F)cc4c3)n2)cnc1N1CCN(C)C(C(F)(F)F)C1 (stereo not shown) : 500 to 2000 nM

Value of measured IC50 for the entry O=S1(=O)CCN([C@H]2C[C@H](Oc3ccc(Nc4nccc(Nc5cnc6c(c5)C5CCC6C5)n4)cc3)C2)CC1 (stereo partly shown) : 500 to 2000 nM

----------
Reported IC50 values for a set of compounds
target_of_assay: IGF-1R (Homo sapiens (Human))
assay_comment: Example B-1: IGF-1R Assay (PC3 cells, IGF1 stimulation, AlphaLISA)
Format: cell-based
run_parameters: 200 ng/mL IGF1 stimulation, read-out: Biological Activity against IGF-1R IC50

Answered examples (3):
compound	IC50
CN(C)[C@H]1C[C@H](Oc2ccc(Nc3nccc(Nc4cc5ccccc5[nH]c4=O)n3)cc2)C1 [Compound 248]	≤ 0.5 µM
COc1cc(Nc2nccc(Nc3cnc4ccc(Cl)cc4c3)n2)cnc1O[C@@H]1C[C@H](N(C)C)C1(C)C [Compound 258]	≤ 0.5 µM
COc1cc(Nc2nccc(Nc3cnc4cc(F)c(F)cc4c3)n2)cnc1N1CCS(=O)(=O)CC1 [Compound 161]	0.5 to 2 µM

Value of measured IC50 for the entry COc1cc(Nc2nccc(Nc3cnc4ccc(Cl)cc4c3)n2)ccc1O[C@H]1C[C@H](N(C)C)C1 [Compound 195] : ≤ 0.5 µM

----------
target_of_assay: IGF-1R (Homo sapiens (Human), UniProt P08069)
assay_comment: Example B-2: IGF-1R Assay (PathHunter cell lines, EC80 agonist challenge)
Format: cell-based
run_parameters: read-out: IC50 (Biological Activity against IGF-1R)
Sequence (P08069 31-1367, species assumed): as the sequence (P08069 31-1367) above
pIC50: −log10 of the molar value.
Reported pIC50 values for a set of compounds

Answered examples (6):
compound	target_of_assay	experimental_value
COc1cc(C2CCN(CC#N)CC2)ccc1Nc1nccc(Nc2cc3cccc(F)c3[nH]c2=O)n1 [Compound 213]	IGF-1R (Homo sapiens (Human), UniProt P08069)	≥ 6.30
COc1cc(C2CCN(CC#N)CC2)ncc1Nc1nccc(Nc2cc3cccc(F)c3[nH]c2=O)n1 [Compound 211]	IGF-1R (Homo sapiens (Human), UniProt P08069)	≥ 6.30
COc1cc(Nc2nccc(Nc3cc4cccc(F)c4[nH]c3=O)n2)cnc1C1CCNCC1 [Compound 223]	IGF-1R (Homo sapiens (Human), UniProt P08069)	5.70 to 6.30
CN(C)CC(=O)N1CCc2cc(Nc3nccc(Nc4cnc5ccc(Cl)cc5c4)n3)ccc21 [Compound 146]	IGF-1R (Homo sapiens (Human), UniProt P08069)	≥ 6.30
COc1cc(Nc2nccc(Nc3cnc4cc(F)c(F)cc4c3)n2)c(Cl)cc1O[C@H]1C[C@@H](N(C)C)C1 [Compound 153]	IGF-1R (Homo sapiens (Human), UniProt P08069)	≥ 6.30
CN(C)CC1COc2cc(Nc3nccc(Nc4cnc5cc(F)c(F)cc5c4)n3)cnc2O1 (stereo not shown) [Compound 499]	IGF-1R (Homo sapiens (Human), UniProt P08069)	5.70 to 6.30

Next up:
Value of measured pIC50 for the entry COc1cc([C@H]2CC[C@@](C)(O)CC2)ccc1Nc1nccc(Nc2cc3cccc(F)c3[nH]c2=O)n1 [Compound 216] : ≥ 6.30

----------
target_of_assay: IGF-1R (Homo sapiens (Human), UniProt P08069)
assay_comment: Example B-1: IGF-1R Assay (PC3 cells, IGF1 stimulation, AlphaLISA)
Type: cell-based
run_parameters: 200 ng/mL IGF1 stimulation, read-out: Biological Activity against IGF-1R IC50
pIC50: −log10 of the molar value.
Reported pIC50 values for a set of molecules

given_smiles	experimental_value
FC(F)(F)c1ccc2cc(Nc3ccnc(Nc4ccc(OCCCN5CCOCC5)cc4)n3)cnc2c1	5.00 to 5.70

Value of measured pIC50 for the entry COc1cc(Nc2nccc(Nc3cnc4c(c3)OCCO4)n2)cnc1O[C@H]1C[C@@H](N(C)C)C1 : ≥ 6.30

Value of measured pIC50 for the entry COc1cc(Nc2nccc(Nc3ccc4c(c3)OCCO4)n2)ccc1OCCCN1CCCCC1 : ≥ 6.30

Value of measured pIC50 for the entry COc1cc(Nc2ncc(F)c(Nc3cc4ccccc4nc3C(N)=O)n2)cnc1O[C@H]1C[C@@H](N(C)C)C1 : ≥ 6.30

----------
target_of_assay: IGF-1R (Homo sapiens (Human), UniProt P08069)
assay_comment: Example B-1: IGF-1R Assay (PC3 cells, IGF1 stimulation, AlphaLISA)
Type: cell-based
run_parameters: 200 ng/mL IGF1 stimulation, read-out: Biological Activity against IGF-1R IC50
pIC50: −log10 of the molar value.
observed_property: pIC50

Answered examples (2):
compound	target_of_assay	experimental_value
COc1cc(Nc2nccc(Nc3cnc4c(c3)CCCCC4)n2)ccc1O[C@H]1C[C@@H](N(C)C)C1 [Compound 202]	IGF-1R (Homo sapiens (Human), UniProt P08069)	≥ 6.30
COc1cc(Nc2nccc(Nc3cnc4c(c3)O[C@@H]3CCCC[C@@H]3O4)n2)ccc1O[C@H]1C[C@@H](N(C)C)C1 [Compound 190]	IGF-1R (Homo sapiens (Human), UniProt P08069)	≥ 6.30

Value of measured pIC50 for the entry COc1cc(Nc2nccc(Nc3cnc4cc(F)c(F)cc4c3)n2)cnc1N1CCNCC1 [Compound 478] : ≥ 6.30

Value of measured pIC50 for the entry COc1cc(Nc2nccc(Nc3cc4cccc(F)c4[nH]c3=O)n2)cnc1N1CCN(C)CC1 [Compound 197] : ≥ 6.30

Value of measured pIC50 for the entry COc1cc(Nc2nccc(Nc3cnc4cc(C5CC5)ccc4c3)n2)ccc1OCCCN1CCCCC1 [Compound 107] : ≥ 6.30

Value of measured pIC50 for the entry COc1ccc2cc(Nc3ccnc(Nc4ccc(OCCCN5CCCCC5)c(OC)c4)n3)ccc2c1 [Compound 444] : ≥ 6.30

Value of measured pIC50 for the entry COc1cc(Nc2nccc(Nc3cnc4cc(F)cnc4c3)n2)cnc1O[C@H]1C[C@@H](N(C)C)C1 [Compound 85] : 5.70 to 6.30

Value of measured pIC50 for the entry COc1cc(Nc2nccc(Nc3cnc4c(c3)C3CCC(C4)O3)n2)ccc1OCCCN1CCCCC1 (stereo not drawn) [Compound 60] : 5.70 to 6.30

Value of measured pIC50 for the entry COc1cc(Nc2nccc(Nc3cnc4ccc(O)cc4c3)n2)ccc1O[C@H]1C[C@H](N(C)C)C1 [Compound 330] : ≥ 6.30
